target: 26S proteasome (Homo sapiens) (UniProt Q99460+P49721+P20618+P28074+P28062+P28065+P28072+O00487+P25786+P25787+P25788+P25789+P28066+P60900+O14818+Q8TAA3+P40306+A5LHX3+P49720+P28070+Q99436+Q16186+P35998+P62191+P43686+P62333+P17980+P62195+Q13200+O43242+O00232+O00231+Q15008+P51665+Q9UNM6+P55036+P48556+P60896); assay: Inhibition of chymotrypsin-like enzyme activity of purified human 20S proteasome using Suc-Leu-Leu-Val-Tyr-AMC as substrate at 1 ug/ml by fluorescence method; format: protein-complex assay
Cut-off 0.8% on inhibition, inclusive. At or above means met; below means not met.

- COc1ccc(C(=O)N[C@@H](Cc2ccccc2)C(=O)NC(CC(=O)N[C@@H](CC(C)C)C(=O)[C@@]2(C)CO2)c2ccccc2)cc1 (some centres undefined): not met
- CC(C)C[C@H](NC(=O)[C@H](Cc1ccccc1)NC(=O)CC(NC(=O)c1ccc(C#N)cc1)c1ccccc1)C(=O)[C@@]1(C)CO1 (some centres undefined): met
- CC(C)C[C@H](NC(=O)CC(NC(=O)[C@H](Cc1ccccc1)NC(=O)c1cccnc1)c1ccccc1)C(=O)[C@@]1(C)CO1 (some centres undefined): not met
- CC(C)C[C@H](NC(=O)[C@H](Cc1ccccc1)NC(=O)CC(NC(=O)c1ccccc1)c1ccccc1)C(=O)[C@@]1(C)CO1 (some centres undefined): met
- CC(C)C[C@H](NC(=O)[C@H](Cc1ccccc1)NC(=O)CC(NC(=O)c1ccc(-c2ccccc2)cc1)c1ccccc1)C(=O)[C@@]1(C)CO1 (some centres undefined): met
- CC(C)C[C@H](NC(=O)c1cccnc1)C(=O)NC(CC(=O)N[C@@H](CC(C)C)C(=O)[C@@]1(C)CO1)c1ccccc1 (some centres undefined): met
- CC(C)C[C@H](NC(=O)[C@H](Cc1ccccc1)NC(=O)CC(NC(=O)c1ccco1)c1ccccc1)C(=O)[C@@]1(C)CO1 (some centres undefined): met
- CC(C)C[C@H](NC(=O)CC(NC(=O)[C@H](Cc1ccccc1)NC(=O)c1ccc(F)cc1)c1ccccc1)C(=O)[C@@]1(C)CO1 (some centres undefined): not met
- CC(C)C[C@H](NC(=O)c1ccc(F)cc1)C(=O)NC(CC(=O)N[C@@H](Cc1ccccc1)C(=O)[C@@]1(C)CO1)c1ccccc1 (some centres undefined): met
- CC(C)C[C@H](NC(=O)[C@H](Cc1ccccc1)NC(=O)CC(NC(=O)c1cccs1)c1ccccc1)C(=O)[C@@]1(C)CO1 (some centres undefined): met
- CC(C)C[C@H](NC(=O)CC(NC(=O)[C@H](Cc1ccccc1)NC(=O)c1cnccn1)c1ccccc1)C(=O)[C@@]1(C)CO1 (some centres undefined): met
- CC(C)C[C@H](NC(=O)[C@H](Cc1ccccc1)NC(=O)CC(NC(=O)c1cccnc1)c1ccccc1)C(=O)[C@@]1(C)CO1 (some centres undefined): met
- COc1ccc(C(=O)N[C@@H](CC(C)C)C(=O)NC(CC(=O)N[C@@H](Cc2ccccc2)C(=O)[C@@]2(C)CO2)c2ccccc2)cc1 (some centres undefined): not met
- CC(C)C[C@H](NC(=O)CC(NC(=O)[C@H](Cc1ccccc1)NC(=O)c1ccccc1)c1ccccc1)C(=O)[C@@]1(C)CO1 (some centres undefined): not met

====

molecular target: 26S proteasome (Homo sapiens) (UniProt Q99460+P49721+P20618+P28074+P28062+P28065+P28072+O00487+P25786+P25787+P25788+P25789+P28066+P60900+O14818+Q8TAA3+P40306+A5LHX3+P49720+P28070+Q99436+Q16186+P35998+P62191+P43686+P62333+P17980+P62195+Q13200+O43242+O00232+O00231+Q15008+P51665+Q9UNM6+P55036+P48556+P60896); test: Inhibition of chymotrypsin-like enzyme activity of purified human 20S proteasome using Suc-Leu-Leu-Val-Tyr-AMC as substrate at 1 ug/ml by fluorescence method; type: protein-complex assay
outcome.measure: inhibition (%)

- CC(C)C[C@H](NC(=O)[C@H](Cc1ccccc1)NC(=O)CC(NC(=O)c1ccc2ccccc2c1)c1ccccc1)C(=O)[C@@]1(C)CO1 (some centres undefined): 74.8
- CC(C)C[C@H](NC(=O)c1cnccn1)C(=O)NC(CC(=O)N[C@@H](Cc1ccccc1)C(=O)[C@@]1(C)CO1)c1ccccc1 (some centres undefined): 8.7
- CC(C)C[C@H](NC(=O)c1cnccn1)C(=O)NC(CC(=O)N[C@@H](CC(C)C)C(=O)[C@@]1(C)CO1)c1ccccc1 (some centres undefined): 9.01
- CC(C)C[C@H](NC(=O)[C@H](Cc1ccccc1)NC(=O)CC(NC(=O)c1ccc(C(F)(F)F)cc1)c1ccccc1)C(=O)[C@@]1(C)CO1 (some centres undefined): 76
- CC(C)C[C@H](NC(=O)[C@H](Cc1ccccc1)NC(=O)C[C@@H](NC(=O)c1ccc(C(F)(F)F)cc1)c1ccccc1)C(=O)[C@@]1(C)CO1: 84.4
- CC(C)C[C@H](NC(=O)[C@H](Cc1ccccc1)NC(=O)CC(NC(=O)C1CCOCC1)c1ccccc1)C(=O)[C@@]1(C)CO1 (some centres undefined): 69.5
- CC(C)C[C@H](NC(=O)c1ccccc1)C(=O)NC(CC(=O)N[C@@H](Cc1ccccc1)C(=O)[C@@]1(C)CO1)c1ccccc1 (some centres undefined): 1.56
- CC(C)C[C@H](NC(=O)c1ccc(F)cc1)C(=O)NC(CC(=O)N[C@@H](CC(C)C)C(=O)[C@@]1(C)CO1)c1ccccc1 (some centres undefined): 5.46
- CC(C)C[C@H](NC(=O)[C@H](Cc1ccccc1)NC(=O)C[C@H](NC(=O)c1ccc2ccccc2c1)c1ccccc1)C(=O)[C@@]1(C)CO1: 11.8
- CC(C)C[C@H](NC(=O)[C@H](Cc1ccccc1)NC(=O)CC(NC(=O)CN1CCOCC1)c1ccccc1)C(=O)[C@@]1(C)CO1 (some centres undefined): 40
- CC(C)C[C@H](NC(=O)[C@H](Cc1ccccc1)NC(=O)CC(NC(=O)c1ccc(F)cc1)c1ccccc1)C(=O)[C@@]1(C)CO1 (some centres undefined): 87.7
- CC(C)C[C@H](NC(=O)[C@H](Cc1ccccc1)NC(=O)C[C@H](NC(=O)c1ccc(C(F)(F)F)cc1)c1ccccc1)C(=O)[C@@]1(C)CO1: 25.6
- COc1ccc(C(=O)N[C@@H](CC(C)C)C(=O)NC(CC(=O)N[C@@H](CC(C)C)C(=O)[C@@]2(C)CO2)c2ccccc2)cc1 (some centres undefined): 0.56
- COc1ccc(C(=O)NC(CC(=O)N[C@@H](Cc2ccccc2)C(=O)N[C@@H](CC(C)C)C(=O)[C@@]2(C)CO2)c2ccccc2)cc1 (some centres undefined): 84.1

====

target: 26S proteasome; experiment: Inhibition of chymotrypsin-like enzyme activity of purified human 20S proteasome using Suc-Leu-Leu-Val-Tyr-AMC as substrate by fluorescence method
pIC50: −log10 of the molar value.
pIC50 values by entry
outcome.measure: pIC50

- CC(C)C[C@H](NC(=O)[C@H](Cc1ccccc1)NC(=O)CC(NC(=O)C1CCOCC1)c1ccccc1)C(=O)[C@@]1(C)CO1 (some centres not stated): 6.20
- CC(C)C[C@H](NC(=O)[C@H](Cc1ccccc1)NC(=O)CC(NC(=O)c1ccc(F)cc1)c1ccccc1)C(=O)[C@@]1(C)CO1 (some centres not stated): 6.42
- CC(C)C[C@H](NC(=O)[C@H](Cc1ccccc1)NC(=O)CC(NC(=O)c1ccc(C#N)cc1)c1ccccc1)C(=O)[C@@]1(C)CO1 (some centres not stated): 6.44
- CC(C)C[C@H](NC(=O)[C@H](Cc1ccccc1)NC(=O)CC(NC(=O)c1cccs1)c1ccccc1)C(=O)[C@@]1(C)CO1 (some centres not stated): 6.02
- CC(C)C[C@H](NC(=O)[C@H](Cc1ccccc1)NC(=O)C[C@@H](NC(=O)c1ccc(C(F)(F)F)cc1)c1ccccc1)C(=O)[C@@]1(C)CO1: 6.77
- CC(C)C[C@H](NC(=O)[C@H](Cc1ccccc1)NC(=O)CC(NC(=O)c1ccc2ccccc2c1)c1ccccc1)C(=O)[C@@]1(C)CO1 (some centres not stated): 6.72
- CC(C)C[C@H](NC(=O)[C@H](Cc1ccccc1)NC(=O)CC(NC(=O)c1ccccc1)c1ccccc1)C(=O)[C@@]1(C)CO1 (some centres not stated): 6.36
